recorded.metric: IC50

Test item `COc1ccc(NC(=S)N[C@@H](CC(C)C)C(=O)N[C@@H](Cc2ccccc2)C(=O)N[C@@H](CC(C)C)C(=O)[C@@]2(C)CO2)cc1` ; 20S proteasome chymotrypsin-like activity (CT-L) (Homo sapiens, UniProt P28074); reported IC50 was < 50 nM

Hey, 20S proteasome chymotrypsin-like activity (CT-L) (Homo sapiens, UniProt P28074) data for `COc1ccc(NC(=O)N[C@@H](CC(C)C)C(=O)N[C@@H](Cc2ccccc2)C(=O)N[C@@H](CC(C)C)C(=O)[C@@]2(C)CO2)cc1` : IC50 came out at < 50 nM

Assay 20S proteasome chymotrypsin-like activity (CT-L) (Homo sapiens, UniProt P28074), sample `Cc1ccc(CCC(=O)N[C@@H](CC(C)C)C(=O)N[C@@H](Cc2ccccc2)C(=O)N[C@@H](CC(C)C)C(=O)[C@@]2(C)CO2)cc1` , IC50 read: < 50 nM

The molecule `CC(C)C[C@H](NC(=O)C1CCN(S(=O)(=O)c2cccs2)CC1)C(=O)N[C@@H](Cc1ccccc1)C(=O)N[C@@H](CC(C)C)C(=O)[C@@]1(C)CO1` on 20S proteasome chymotrypsin-like activity (CT-L) (Homo sapiens, UniProt P28074): IC50 was < 500 nM
